Assay Explanation: Half life in cynomolgus monkey plasma at 5 mg/kg, po tris(hydroxymethyl)aminomethane (tris) salt form of compound and measured up to 24 hrs by LC/MS-MS analysis
Format: ADME, organism-based, Macaca fascicularis
Endpoint Name: half-life (h)

[
  {
    "Molecule": "COc1cc(C(=O)N2CCC3(CC2)CC(=O)c2c(cnn2C(C)C)C3)cc(-c2ccc(C(=O)O)cc2)n1.NC(CO)(CO)CO [CLESACOSTAT TROMETHAMINE]",
    "Endpoint Name": "half-life",
    "Test Value": 11
  }
]

###

Assay Explanation: Half life in cynomolgus monkey plasma at 1 mg/kg, iv and measured up to 72 hrs by LC/MS-MS analysis
Format: ADME, organism-based, Macaca fascicularis
Endpoint Name: half-life (h)

[
  {
    "Smiles Code": "COc1cc(C(=O)N2CCC3(CC2)CC(=O)c2c(cnn2C(C)C)C3)cc(-c2ccc(C(=O)O)cc2)n1",
    "Endpoint Name": "half-life",
    "Readout Unit": "h",
    "Test Value": 11
  }
]
